- Tested on: 407 cancer cell lines
- Assay summary: Cell viability of cancer cell lines (IC50), CellTiter-Glo Viability Assay, 96 h
- Assay type: cell-based
- Experimental context: KYSE-70; read-out: Absolute IC50
Measurement kind: pIC50
Lab note: report pIC50 as minus log10 of the concentration in molar units, number only.

Item: N.N.[Cl][Pt][Cl] [Cisplatin, reference compound] Test system: 407 cancer cell lines Read-out: pIC50 Value: ?
5.21

----------
- System: 407 cancer cell lines
- Assay summary: Cell viability of cancer cell lines (IC50), CellTiter-Glo Viability Assay, 96 h
- Format: cell-based
- Experimental context: Homo sapiens, SUP-B15, SUP-B15; read-out: Absolute IC50
Measurement kind: IC50 (µM)
Give the quantity in µM, number only.

Recorded IC50 for Cc1nn(-c2nc(-c3ccc(C(F)(F)F)cc3)c(SC(C)C)s2)c(C(=O)O)c1-c1cccc(F)c1 , please?
1.22

----------
- Tested on: 407 cancer cell lines
- Assay summary: Cell viability of cancer cell lines (IC50), CellTiter-Glo Viability Assay, 96 h
- Assay type: cell-based
- Experimental context: SW 156 cells, 96 h; read-out: Absolute IC50
Measurement kind: pIC50
Please report pIC50 as the negative decimal logarithm of the molar concentration, giving only the number.

API: value(readout=pIC50, system=407 cancer cell lines) for record N.N.[Cl][Pt][Cl] [Cisplatin, reference compound]
5.99

----------
- Tested on: 407 cancer cell lines
- Assay summary: Cell viability of cancer cell lines (IC50), CellTiter-Glo Viability Assay, 96 h
- Assay type: cell-based
- Experimental context: Homo sapiens, SNU-449, SNU-449; read-out: Absolute IC50
Measurement kind: pIC50
Kindly note that pIC50 refers to -log10 of the concentration in mol/L and answer with the value alone.

Tell me reported pIC50 for Cc1nn(-c2nc(-c3ccc(C(F)(F)F)cc3)c(SC(C)C)s2)c(C(=O)O)c1-c1cccc(F)c1 , tested with 407 cancer cell lines.
4.62

----------
- Assay summary: Pharmacokinetics in CD-1 mice, single oral dose compared to single intravenous dose
- Type: in vivo
- Experimental context: CD-1, mouse, plasma, po, 2.5 mg/kg, Oral, 2.5 mpk, read-out: % F
Measurement kind: bioavailability (%)
Field format: number, assumed %, no unit text.

Give its bioavailability value. Item: Cc1nn(-c2nc(-c3ccc(C(F)(F)F)cc3)c(SC(C)C)s2)c(C(=O)O)c1-c1cccc(F)c1
59.1

----------
- System: 406 cancer cell lines, 73 blood tumor cell lines and 333 solid tumor cell lines
- Assay summary: OmniScreen drug efficacy on cancer cell lines, fitted area under curve (AUC) of dose-response
- Assay type: cell-based
- Experimental context: Homo sapiens, NCI-H187, NCI-H187, Lung
Measurement kind: IC50 (µM)
# value in µM; strip the unit string

// returns reported IC50 for input Cc1nn(-c2nc(-c3ccc(C(F)(F)F)cc3)c(SC(C)C)s2)c(C(=O)O)c1-c1cccc(F)c1
8.36

----------
- System: 407 cancer cell lines
- Assay summary: Cell viability of cancer cell lines (IC50), CellTiter-Glo Viability Assay, 96 h
- Format: cell-based
- Experimental context: 96 h, SNU-2535 cells, 96 h; read-out: Absolute IC50
Measurement kind: IC50 (nM)
// units = nM; emit number, no label

Any idea what its IC50 is? The compound is Cc1nn(-c2nc(-c3ccc(C(F)(F)F)cc3)c(SC(C)C)s2)c(C(=O)O)c1-c1cccc(F)c1
750

----------
- System: 407 cancer cell lines
- Assay summary: Cell viability of cancer cell lines (IC50), CellTiter-Glo Viability Assay, 96 h
- Type: cell-based
- Experimental context: HCC1500; read-out: Absolute IC50
- Procedure: Viability was determined by using the 50% inhibitory concentration (IC50) as determined with the CellTiter-Glo® Viability Assay (Promega). Experiments were initiated by first thawing and equilibrating the CellTiter-Glo® Buffer to room temperature. The lyophilized CellTiter-Glo® Substrate was also equilibrated to room temperature. […] Cells were harvested during the logarithmic growth period, counted, and the cell concentration adjusted to 4.44×10^4 cells/mL using culture medium. […]
Measurement kind: IC50 (µM)
Give just the numeric value; µM need not be written.

// lookup IC50 for N.N.[Cl][Pt][Cl] [Cisplatin, reference compound]
7.64

----------
- Tested on: 407 cancer cell lines
- Assay summary: Cell viability of cancer cell lines (IC50), CellTiter-Glo Viability Assay, 96 h
- Assay type: cell-based
- Experimental context: MFE-296 cells, 96 h; read-out: Absolute IC50
Measurement kind: pIC50
Please treat pIC50 as minus the base-10 logarithm of the molar concentration.

Param item = N.N.[Cl][Pt][Cl] [Cisplatin, reference compound] ; retrieve measured pIC50.
5.48

----------
- Test system: 407 cancer cell lines
- Assay summary: Cell viability of cancer cell lines (IC50), CellTiter-Glo Viability Assay, 96 h
- Assay type: cell-based
- Experimental context: Homo sapiens, MOLM-13, 96 h, MOLM-13 cells, 96 h; read-out: Absolute IC50
Measurement kind: pIC50
Please note pIC50 is a logarithmic value: minus log10 of concentration in mol/L. Answer with that number alone.

Quick one: pIC50 for Cc1nn(-c2nc(-c3ccc(C(F)(F)F)cc3)c(SC(C)C)s2)c(C(=O)O)c1-c1cccc(F)c1 ?
6.06

----------
- Test system: 407 cancer cell lines
- Assay summary: Cell viability of cancer cell lines (IC50), CellTiter-Glo Viability Assay, 96 h
- Format: cell-based
- Experimental context: COLO 320DM, 96 h; read-out: Absolute IC50
Measurement kind: IC50 (µM)
Just the number please, in µM, no unit attached.

Look up IC50: N.N.[Cl][Pt][Cl] [Cisplatin, reference compound]
3.18

----------
- Assay summary: Pharmacokinetics in CD-1 mice, single oral dose compared to single intravenous dose
- Assay type: in vivo
- Experimental context: mouse, plasma, 0.5 mg/kg, Intravenous, 0.5 mpk, read-out: Vss
Measurement kind: Vd (L/kg)
# unit: L/kg | format: bare number

Which Vd value is on record for Cc1nn(-c2nc(-c3ccc(C(F)(F)F)cc3)c(SC(C)C)s2)c(C(=O)O)c1-c1cccc(F)c1 ?
0.285

----------
- System: 407 cancer cell lines
- Assay summary: Cell viability of cancer cell lines (IC50), CellTiter-Glo Viability Assay, 96 h
- Assay type: cell-based
- Experimental context: Homo sapiens, NCI-H358, 96 h, NCI-H358 cells, 96 h; read-out: Absolute IC50
Measurement kind: IC50
Form field: result (number plus unit)

Query (molecule): Cc1nn(-c2nc(-c3ccc(C(F)(F)F)cc3)c(SC(C)C)s2)c(C(=O)O)c1-c1cccc(F)c1 ; field requested: IC50
380 nM

----------
- Tested on: 406 cancer cell lines, 73 blood tumor cell lines and 333 solid tumor cell lines
- Assay summary: OmniScreen drug efficacy on cancer cell lines, fitted area under curve (AUC) of dose-response
- Assay type: cell-based
- Experimental context: Homo sapiens, C6661, C666-1, Nose
Measurement kind: IC50 (µM)
Report the figure in µM without appending any unit label.

Lab note: need IC50 with 406 cancer cell lines, 73 blood tumor cell lines and 333 solid tumor cell lines for entry Cc1nn(-c2nc(-c3ccc(C(F)(F)F)cc3)c(SC(C)C)s2)c(C(=O)O)c1-c1cccc(F)c1 [Compound A197] , please look it up.
24.6

----------
- Test system: NHLF
- Assay summary: Anti-proliferative activity, CellTiter-Glo, 72 hours: NHLF
- Assay type: cell-based
- Experimental context: NHLF (human lung fibroblast), Cell-Titre-Glo
IC50 for assorted compounds

COC(=O)c1c(-c2cccc(F)c2)c(C)nn1-c1nc(C2=CCC(C(F)(F)F)CC2)c(SC(C)C)s1 (single isomer, unassigned) [Compound B19] : > 30 µM

Now examine the next entry.
I have this compound here, Cc1nn(-c2nc(-c3ccc(C(F)(F)F)cc3)c(SC(C)C)s2)c(C(=O)O)c1-c1cccc(F)c1 [Compound A197] , and I need its recorded IC50.
> 30 µM

----------
- Tested on: 407 cancer cell lines
- Assay summary: Cell viability of cancer cell lines (IC50), CellTiter-Glo Viability Assay, 96 h
- Assay type: cell-based
- Experimental context: LN-18 cells, 96 h; read-out: Absolute IC50
Measurement kind: IC50
Value and unit, in that order.

Given N.N.[Cl][Pt][Cl] [Cisplatin, reference compound] , state its recorded IC50.
700 nM

----------
- System: 407 cancer cell lines
- Assay summary: Cell viability of cancer cell lines (IC50), CellTiter-Glo Viability Assay, 96 h
- Assay type: cell-based
- Experimental context: ST486 cells, 96 h; read-out: Absolute IC50
Measurement kind: pIC50
Lab note — pIC50 values are minus log10 of concentrations in M.

So what's the measured pIC50 for this one? N.N.[Cl][Pt][Cl] [Cisplatin, reference compound]
6.59

----------
- Test system: 406 cancer cell lines, 73 blood tumor cell lines and 333 solid tumor cell lines
- Assay summary: OmniScreen drug efficacy on cancer cell lines, fitted area under curve (AUC) of dose-response
- Format: cell-based
- Experimental context: TT, Thyroid
Measurement kind: IC50
Reply with a number, then the unit it belongs to.

Entry under review: Cc1nn(-c2nc(-c3ccc(C(F)(F)F)cc3)c(SC(C)C)s2)c(C(=O)O)c1-c1cccc(F)c1 . Reported IC50?
2170 nM
